# Target entity: recombinant human ALX receptor (Homo sapiens)
# Experimental details: Intracellular calcium measurements (FLIPR), ALX receptor agonistic activity
# Test context: HEK293-hALXR-Gα16 cells, Fluo-4 calcium signal, normalized to WKYMVm 10 nM
pEC50: −log10 of the molar value.
Decide by pEC50: equal to or exceeding 7 means TRUE, less means FALSE.

>  <Compound>
O=C(NC(Cc1ccc(Br)c(F)c1)c1nc2ccccc2[nH]1)N[C@H]1CC[C@H](O)CC1 (single isomer, unassigned; ent-2) [Example 262]

>  <Category>
TRUE

$$$$
>  <Compound>
COc1ccc(CC(NC(=O)NC23CCC(O)(CC2)CC3)c2nc3ccccc3[nH]2)c(F)c1F (single isomer, unassigned; ent-1) [Example 266]

>  <Category>
TRUE

$$$$
>  <Compound>
COc1ccc(CC(NC(=O)NCc2cccc(Cl)c2)c2nc3ccccc3[nH]2)cc1 (stereo not shown)

>  <Category>
FALSE

$$$$
>  <Compound>
COc1ccc(C[C@@H](NC(=O)N2CCC3NCCC32)c2nc3ccccc3[nH]2)cc1 (stereo partly shown)

>  <Category>
FALSE

$$$$
>  <Compound>
COc1ccc(C[C@@H](NC(=O)NC2CCN(CC(F)F)CC2)c2nc3ccccc3[nH]2)cc1

>  <Category>
TRUE

$$$$

###

# Target entity: recombinant human ALX receptor (Homo sapiens, UniProt P25090)
# Sequence (P25090 whole entry): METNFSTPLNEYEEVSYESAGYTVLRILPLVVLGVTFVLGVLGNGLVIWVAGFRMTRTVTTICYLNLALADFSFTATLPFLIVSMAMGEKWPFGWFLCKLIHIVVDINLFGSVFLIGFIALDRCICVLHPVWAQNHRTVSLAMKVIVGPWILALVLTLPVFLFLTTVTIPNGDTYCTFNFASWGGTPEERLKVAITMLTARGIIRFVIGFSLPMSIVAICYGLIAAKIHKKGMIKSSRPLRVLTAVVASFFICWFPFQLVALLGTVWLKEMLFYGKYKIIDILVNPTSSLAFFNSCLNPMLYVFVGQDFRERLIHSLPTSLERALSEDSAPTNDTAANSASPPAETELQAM
# Experimental details: Intracellular calcium measurements (FLIPR), ALX receptor agonistic activity
# Test context: HEK293-hALXR-Gα16 cells, Fluo-4 calcium signal, normalized to WKYMVm 10 nM

>  <Compound>
COc1ccc(C[C@@H](NC(=O)NCC2CCc3ccccc32)c2nc3ccccc3[nH]2)cc1 (stereo partly shown) [Example 72]

>  <Target entity>
recombinant human ALX receptor (Homo sapiens, UniProt P25090)

>  <Value unit>
nM

>  <EC50>
67

$$$$
>  <Compound>
COc1ccc(C[C@@H](NC(=O)NCCc2ccc(C)c(C)c2)c2nc3ccccc3[nH]2)cc1 [Example 275]

>  <Target entity>
recombinant human ALX receptor (Homo sapiens, UniProt P25090)

>  <Value unit>
nM

>  <EC50>
126

$$$$
>  <Compound>
CCOCc1ccccc1CNC(=O)NC(Cc1ccc(OC)cc1)c1nc2ccccc2[nH]1 (stereo not shown) [Example 50]

>  <Target entity>
recombinant human ALX receptor (Homo sapiens, UniProt P25090)

>  <Value unit>
nM

>  <EC50>
136

$$$$
>  <Compound>
COc1c(F)cc(CC(NC(=O)N[C@H]2CC[C@H](O)CC2)c2nc3ccccc3[nH]2)cc1F (relative stereo) [Example 241]

>  <Target entity>
recombinant human ALX receptor (Homo sapiens, UniProt P25090)

>  <Value unit>
nM

>  <EC50>
138

$$$$

###

# Target entity: recombinant human ALX receptor (Homo sapiens)
# Experimental details: Intracellular calcium measurements (FLIPR), ALX receptor agonistic activity
# Test context: HEK293-hALXR-Gα16 cells, Fluo-4 calcium signal, normalized to WKYMVm 10 nM
As shown below, each of these compounds has a reported EC50 value.

>  <Compound>
COc1ccc(CC(NC(=O)NC2CCC2)c2nc3ccccc3[nH]2)cc1 (stereo not drawn)

>  <EC50, nM>
62

$$$$
>  <Compound>
COc1ccc(C[C@@H](NC(=O)N[C@@H](C)c2ccc(Br)cc2)c2nc3ccccc3[nH]2)cc1

>  <EC50, nM>
146

$$$$
>  <Compound>
COc1ccc(C[C@@H](NC(=O)NCc2c(Cl)cccc2Cl)c2nc3ccccc3[nH]2)cc1

>  <EC50, nM>
141

$$$$

Entry source: patent US9663473B2
